Data credit: patent US10081617B2

Biological target: purified human Factor XIa (Homo sapiens (Human))
Sequence (P03951 388-625): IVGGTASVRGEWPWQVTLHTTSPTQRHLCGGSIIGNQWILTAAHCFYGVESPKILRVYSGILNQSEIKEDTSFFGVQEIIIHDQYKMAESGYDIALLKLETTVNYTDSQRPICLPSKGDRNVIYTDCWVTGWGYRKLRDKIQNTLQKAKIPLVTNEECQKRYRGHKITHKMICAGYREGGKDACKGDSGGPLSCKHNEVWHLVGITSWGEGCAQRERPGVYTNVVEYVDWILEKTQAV
Sequence (P03951 19-387 partner): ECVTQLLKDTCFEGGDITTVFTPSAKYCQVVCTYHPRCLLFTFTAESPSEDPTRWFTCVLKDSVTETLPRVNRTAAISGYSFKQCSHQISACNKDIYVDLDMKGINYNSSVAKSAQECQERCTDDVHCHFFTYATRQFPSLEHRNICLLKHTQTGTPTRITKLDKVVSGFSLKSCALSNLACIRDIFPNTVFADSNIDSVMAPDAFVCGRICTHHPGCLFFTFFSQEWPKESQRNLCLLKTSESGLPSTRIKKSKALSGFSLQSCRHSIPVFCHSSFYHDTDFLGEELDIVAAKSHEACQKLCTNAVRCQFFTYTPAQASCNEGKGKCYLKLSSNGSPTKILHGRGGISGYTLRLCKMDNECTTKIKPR
measuredEndpoint: Ki

> print(dat)
                                   molecule                           targetundertest  valuemeasured
1  O=C(O)c1ccc(-c2cnc(C3CCc4cc(-c5cc(Cl)ccc5-n5cnnn5)c[n+]([O-])c43)[nH]2)s1 (stereo not shown)  purified human Factor XIa (Homo sapiens (Human))        3.08 nM
